Assay: qHTS assay for small molecule agonists of the p53 signaling pathway (AID 651631); also: nearly all actives have a fitted effect of over 15% in size; also: potency is read from the fitted curve at half-maximal effect
Settings: HCT-116 p53RE-bla reporter, beta-lactamase FRET ratio, 16 h; series mostly up to 73.3 µM
Records with an inconclusive call do not appear. Activity calls are given as the source filed them. Calls follow the shape of the full dose curve.
observation.type: Potency

Some solved cases for reference:
1) [O]=[Zr]: inactive
2) CC(O)C#CC(C)O (configuration not stated): inactive
3) CCOC(=O)COc1ccc(C)cc1: inactive
4) O=C1OC(=O)c2cccc3cccc1c23: inactive
5) CCCCCCCCCCOCC(O)CN (configuration not stated): 33.5 µM (active)

### Prompt Consider the compound shown here: CCC(C)c1cc([N+](=O)[O-])cc([N+](=O)[O-])c1OC(=O)OC(C)C (configuration not stated) What is its recorded Potency?
### Response 30.6 µM (active)

### Prompt // same read-out, input: CCCCCCCCCCCCCCNCCO
### Response inactive

### Prompt // same read-out, input: O=C1OC(OC(=O)c2cccnc2Nc2cccc(C(F)(F)F)c2)c2ccccc21 (configuration not stated)
### Response inactive

### Prompt // same read-out, input: CC(=O)Oc1ccc(C2(c3ccc(OC(C)=O)cc3)Oc3ccccc3NC2=O)cc1
### Response 2.37 µM (active)

### Prompt // same read-out, input: C/C=C/C(=O)Oc1c(CCCCCC(C)C)cc([N+](=O)[O-])cc1[N+](=O)[O-]
### Response 0.864 µM (active)

### Prompt // same read-out, input: C=CC(=C)CCC=C(C)C
### Response inactive
